Experiment: Stability Test-2: residual rate in cream of pH 7 or 9 stored at 50° C.
Type: physicochemical
Details: cream pH 7, 50° C., after 2 weeks; 20160 min
MEASUREMENT_NAME: Residual Rate

>  <MOLECULE>
CC(C)CCCCCCCCCCCCCCC(=O)OCC(O)C1OC(=O)C2=C1OCCCO2 (stereo not shown) [Synthesis Example 28]

>  <MEAS_VALUE>
⊚ (95% or more)

$$$$
>  <MOLECULE>
CCCCCCCC(=O)OC[C@H](OC(=O)CCC)[C@H]1OC(=O)C2=C1OCCCCO2 [Synthesis Example 19]

>  <MEAS_VALUE>
⊚ (95% or more)

$$$$
>  <MOLECULE>
CCCC(=O)OCC(OC(=O)CCC)C1OC(=O)C2=C1OCCCCO2 (stereo not shown) [Synthesis Example 10]

>  <MEAS_VALUE>
⊚ (95% or more)

$$$$
>  <MOLECULE>
CCCCCCCCCCCC(=O)OCC(O)C1OC(=O)C2=C1OCCCCO2 (stereo not shown) [Synthesis Example 13]

>  <MEAS_VALUE>
⊚ (95% or more)

$$$$
>  <MOLECULE>
CCCCCCCC(=O)OCC(OC(=O)CCCCCCC)C1OC(=O)C2=C1OCCCCO2 (stereo not shown) [Synthesis Example 12]

>  <MEAS_VALUE>
⊚ (95% or more)

$$$$
>  <MOLECULE>
CCCCCCCC(=O)OCC(OC(=O)CCCCCCC)C1OC(=O)C2=C1OCCCO2 (stereo not shown) [Synthesis Example 23]

>  <MEAS_VALUE>
⊚ (95% or more)

$$$$
>  <MOLECULE>
CCCCCCCCCCCC(=O)OCC(O)C1OC(=O)C2=C1OCCCO2 (stereo not shown) [Synthesis Example 24]

>  <MEAS_VALUE>
⊚ (95% or more)

$$$$
>  <MOLECULE>
CCCCCCCCCCCC(=O)OCC(OC(=O)CCCCCCCCCCC)C1OC(=O)C2=C1OCCCCO2 (stereo not shown) [Synthesis Example 14]

>  <MEAS_VALUE>
⊚ (95% or more)

$$$$
>  <MOLECULE>
CCCCCCCCCCCCCCCC(=O)OCC(OC(=O)CCC)C1OC(=O)C2=C1OCCCO2 (stereo not shown) [Synthesis Example 30]

>  <MEAS_VALUE>
⊚ (95% or more)

$$$$
>  <MOLECULE>
CCCCCCCC(=O)OCC(O)C1OC(=O)C2=C1OCCCO2 (stereo not shown) [Synthesis Example 22]

>  <MEAS_VALUE>
⊚ (95% or more)

$$$$
